Source of measurements: PubChem BioAssay

System: XIP peptide (Xip251-270)
ASSAY_REMARKS: small-molecule binders of XIP peptide, primary screen, biochemical, small-molecule microarray, fluorescence 635/667 nm, 0.5 µg/mL protein (AID 1183)
RUN_CONDITIONS: small-molecule microarray binding, fluorescence 635 nm; higher = more signal
Label met when composite z-score is at or above 0.7; otherwise label not met.

Please check the record `CO[C@H]1O[C@H](CO)[C@@H](OC(=O)Nc2ccc(C(F)(F)F)cc2)[C@H](OC(=O)Nc2ccccc2-c2ccccc2)[C@@H]1OC(=O)Nc1ccccc1-c1ccccc1` and state if its composite z-score is at or above 0.7.
met

Please check the record `C=CCOC(=O)[C@H]1[C@@H]2C(=O)O[C@@H](c3ccccc3)[C@@H](c3ccccc3)N2[C@@H](c2ccc(OCCOC(=O)[C@@H]3C[C@@H]4C(=O)N[C@@H](CC(C)C)C(=O)N4[C@@H]3c3ccc(O)cc3)cc2)[C@]12C(=O)Nc1ccc(I)cc12` and state if its composite z-score is at or above 0.7.
met

Please check the record `C=C(CC1([C@@H](NP(=O)(c2ccccc2)c2ccccc2)[C@H]2C[C@@H]2CCN(C(=O)OCC)S(=O)(=O)c2ccc(C)cc2)CC1)c1ccccc1` and state if its composite z-score is at or above 0.7.
not met

Please check the record C=CCC(OC(C)=O)[C@@H]1[C@@H](N(Cc2ccc(-c3cccc(C(F)(F)F)c3)o2)C(=O)Cc2ccc(F)cc2)c2cc(OCCCO)ccc2N1C(=O)c1ccc2ccccc2n1 (stereo partly specified) and state if its composite z-score is at or above 0.7.
not met

Please check the record `CC(=O)NCCCC[C@@H]1NC(=O)[C@@H]2C[C@H](C(=O)NCCCCCC[N+](C)(C)C)[C@H](c3ccc(O)cc3)N2C1=O` and state if its composite z-score is at or above 0.7.
met

Please check the record `COc1ccccc1CN1C(=O)c2ccccc2[C@@H](C(=O)NCCCN(C)C)[C@@H]1c1ccc(CO)cc1` and state if its composite z-score is at or above 0.7.
not met

----------
ASSAY_REMARKS: binders of probe aFGF2 on microarray, primary screen, stem cell growth factor project, biochemical, small-molecule microarray, fluorescence 635/667 (AID 1067);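 also: measures binding of biotinylated aFGF2 protein to printed compounds on slides; z-score merges feature fluorescence and signal-to-noise across triplicate slides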
RUN_CONDITIONS: higher = more signal
QUANTITY_KIND: composite z-score
Keep the answer to the number alone.

Which composite z-score is reported for this molecule? `Cc1c(NC(=O)/C(C#N)=C/c2ccc(Cl)cc2)c(=O)n(-c2ccccc2)n1C`
-0.0909

Which composite z-score is reported for this molecule? C=CCC(OC(C)=O)[C@@H]1[C@@H](N(Cc2ccc(-c3ccccc3)cc2)C(=O)c2ccc(-c3ccccc3)cc2)c2cc(OCCCO)ccc2N1C(=O)c1ccc2ccccc2n1 (stereo not given in full)
-0.0945

Which composite z-score is reported for this molecule? `C=CC[C@]1(C(=O)OC)N=C(c2ccc(OCCCO)cc2)O[C@H]1c1ccccc1N=[N+]=[N-]`
0.288

Which composite z-score is reported for this molecule? `C=C(CCCC)C(=O)CC[C@H](OC(=O)c1cccnc1)c1ccc(CO)o1`
-0.0752

Which composite z-score is reported for this molecule? `COCCOC(=O)N1C(=O)[C@@]2(c3cc(C#Cc4ccc(OC)cc4)ccc31)[C@H](c1ccc(OCCO)cc1)N1[C@H](c3ccccc3)[C@H](c3ccccc3)OC(=O)[C@H]1[C@@H]2C(=O)N1CCCCCCC1`
0.684

Which composite z-score is reported for this molecule? `CCOC(=O)C1=C(C(=O)OCC)N(S(=O)(=O)CC[Si](C)(C)C)[C@H](c2ccccc2)CC1`
-0.0066

Which composite z-score is reported for this molecule? `COCCCNC(=O)[C@@H]1c2ccccc2C(=O)N(C2CCCCC2)[C@H]1c1ccc(CO)cc1`
-0.105

Which composite z-score is reported for this molecule? C=CCC(OC(C)=O)[C@@H]1[C@@H](N(Cc2ccc(-c3ccccc3)cc2)C(=O)c2ccc(C)cc2)c2cc(OCCCO)ccc2N1C(=O)c1ccc2ccccc2c1 (stereo not given in full)
-0.116

Which composite z-score is reported for this molecule? `C=CC[C@]1(C(=O)NCCCOC)N=C(c2ccc(OCCCO)cc2)O[C@H]1c1ccccc1`
0.0823

Which composite z-score is reported for this molecule? `COC(=O)[C@@]1(Cc2ccc(F)cc2)[C@H]2c3cc(C(=O)N(C)C)n(CCN4CCOCC4)c3C[C@H]2CN1C(=O)c1ccccc1`
0.0141

Which composite z-score is reported for this molecule? `C=CCN1C(=O)[C@]2(O[C@H](CCn3cc([C@H](O)c4ccccc4)nn3)[C@@H]([Si](C)(C)c3ccc(OC)cc3)[C@@H]2C)c2cc(N3C(=O)c4cccc5cccc3c45)ccc21`
-0.085

Which composite z-score is reported for this molecule? `NC(=O)[C@@]1(CCS(=O)(=O)c2ccccc2)COC(c2ccc(OCCCO)cc2)=N1`
0.0777

Which composite z-score is reported for this molecule? `COc1ccc(CC[C@H](O)c2cccc(OCC(=O)OC(C)(C)C)c2)cc1`
0.106

Which composite z-score is reported for this molecule? `CCCC[C@@H](O)C1=C(COC)Cn2c(=O)n(-c3ccccc3)c(=O)n2[C@H]1CO`
-0.226

Which composite z-score is reported for this molecule? `CCCC[C@H]1OB(O)C[C@H]2C1=C(COC)C[C@H]1C(=O)C=CC(=O)[C@H]12`
-0.0582
